- TARGET UNDER TEST: ROR1 (antigen of the KD determination and of the Octet dissociation measurement) (UniProt Q01973 30-403, limits assumed)
- Sequence (Q01973 30-403 limits assumed): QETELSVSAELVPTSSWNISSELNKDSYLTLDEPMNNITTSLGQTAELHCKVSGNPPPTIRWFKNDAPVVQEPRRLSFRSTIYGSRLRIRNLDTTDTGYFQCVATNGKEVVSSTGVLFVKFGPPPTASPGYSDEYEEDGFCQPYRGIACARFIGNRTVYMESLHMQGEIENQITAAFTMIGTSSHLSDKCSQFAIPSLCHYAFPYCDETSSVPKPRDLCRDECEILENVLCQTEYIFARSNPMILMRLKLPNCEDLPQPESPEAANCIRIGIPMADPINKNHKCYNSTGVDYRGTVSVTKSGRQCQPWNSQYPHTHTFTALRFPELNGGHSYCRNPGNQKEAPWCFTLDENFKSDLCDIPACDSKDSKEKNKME
- EXPERIMENTAL PROTOCOL: method not stated (conventional procedures)
Provide the reported kon of each item.
Answers are plain numbers, in M⁻¹ s⁻¹.

Solved entries:
* PR001369 (antibody, human IgG1, kappa, V domains shown, fully human IgG1, kappa; also called anti-ROR1 1015M3-H10 hIgG1; PR001369(WT)) VH: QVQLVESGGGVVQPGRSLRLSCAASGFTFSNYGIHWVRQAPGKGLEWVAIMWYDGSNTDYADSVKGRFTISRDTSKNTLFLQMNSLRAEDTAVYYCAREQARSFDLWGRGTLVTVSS VL: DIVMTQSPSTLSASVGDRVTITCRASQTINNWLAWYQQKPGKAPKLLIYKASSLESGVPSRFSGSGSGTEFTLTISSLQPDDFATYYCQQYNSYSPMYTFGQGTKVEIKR | 307000
* PR001418 (antibody, human IgG1, kappa, V domains shown, fully human IgG1, kappa) VH: QVQLVESGGGVVQPGRSLRLSCAASGFTFSSYGMHWVRQAPGKGLEWVAVIWYDGSDKDYADSVKGRFTISRDTSKNTLYLQMNSLRAEDTAVYYCAREQARSFDLWGRGTLVTVSS VL: DIVMTQSPSTLSASVGDRVTITCRASQTINNWLAWYQQKPGKAPKLLIYKASSLESGVPSRFSGSGSGTEFTLTISSLQPDDFATYYCQQYNSYSPMYTFGQGTKLEIKR | 292000
* PR001365 (antibody, human IgG1, kappa, V domains shown, fully human IgG1, kappa) VH: QVQLVQSGGGVVQPGRSLRLSCAASGFTFSSYGMHWVRQAPGKGLEWVAVIWYDGSDKDYADSVKGRFTISRDTSKNTLYLQMNSLRAEDTAVYYCAREQARSFDLWGRGTLVTVSS VL: DIQMTQSPYSLSASVGDRVTITCRASQTINNWLAWYQQKPGKAPKLLIYKASSLESGVPSRFSGSGSGTEFTLTISSLQPDDFATYYCQQYKLYSPMYTFGQGTKVEIKR | 325000
* PR001416 (antibody, human IgG1, kappa, V domains shown, fully human IgG1, kappa) VH: QVQLVESGGGVVQPGRSLRLSCAASGFTFSTYGMHWVRQAPGKGLEWVAVIWYDGSDKDYADSVKGRFTISRDTSKNTLYLQMNSLRAEDTAVYYCAREQARSFDLWGRGTLVTVSS VL: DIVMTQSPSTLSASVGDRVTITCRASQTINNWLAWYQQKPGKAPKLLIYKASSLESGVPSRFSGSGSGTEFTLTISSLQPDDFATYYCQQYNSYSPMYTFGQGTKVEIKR | 270000

Exercise: Name the recorded kon of the binder listed here: PR001367 (antibody, human IgG1, kappa, V domains shown, fully human IgG1, kappa) VH: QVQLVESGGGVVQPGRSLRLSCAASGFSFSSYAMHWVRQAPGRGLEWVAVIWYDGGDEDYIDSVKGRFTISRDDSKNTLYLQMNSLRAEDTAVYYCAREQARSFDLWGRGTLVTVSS VL: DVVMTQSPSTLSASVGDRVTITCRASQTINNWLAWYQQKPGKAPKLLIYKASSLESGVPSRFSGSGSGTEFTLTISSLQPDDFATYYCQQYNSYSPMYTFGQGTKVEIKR
Solution: 341000

Data origin: patent US20240010721A1
